Provenance of the data: ChEMBL document CHEMBL4007454

assaySummary: Intrinsic clearance in rat hepatocytes assessed per million cells at 1 uM after 180 mins by LC-MS/MS analysis
Type: ADME, cell-based, Hepatocyte
runParameters: read-out: CLH
Please respond with reported hepatocyte CLint at 1 µM for every item in the list.
Field: numeric (µL/min/1e6 cells). Do not append units.

Need hepatocyte CLint at 1 µM, item `c1cc(-c2n[nH]c3ccc(C4CC4)cc23)cc(N2CCOCC2)n1`
52

Any idea what its hepatocyte CLint at 1 µM is? The compound is `CC1(Oc2ccc3[nH]nc(-c4cc(N5CCN(S(C)(=O)=O)CC5)ncn4)c3c2)CC1`
10

Tell me the measured hepatocyte CLint at 1 µM of `CC(C)Oc1ccc2[nH]nc(-c3ccnc(N4CCN(C)C(=O)C4)c3)c2c1` , please.
38

Look up hepatocyte CLint at 1 µM: `C[C@@H]1CN(c2cc(-c3n[nH]c4ccc(OC5(C)CC5)cc34)ncn2)CCO1`
15

Suppose we examine the compound `Cn1cc(-c2ccc3[nH]nc(-c4ccnc(N5CCOCC5)c4)c3c2)cn1` ; what hepatocyte CLint at 1 µM value has been reported?
31
